Target: human FAAH (Homo sapiens, UniProt O00519)
Construct: host or cells: COS-7 cells, transient transfection (FuGENE 6); 13,000 g membrane fraction solubilised in 1% Triton X-100
Sequence (O00519 1-579): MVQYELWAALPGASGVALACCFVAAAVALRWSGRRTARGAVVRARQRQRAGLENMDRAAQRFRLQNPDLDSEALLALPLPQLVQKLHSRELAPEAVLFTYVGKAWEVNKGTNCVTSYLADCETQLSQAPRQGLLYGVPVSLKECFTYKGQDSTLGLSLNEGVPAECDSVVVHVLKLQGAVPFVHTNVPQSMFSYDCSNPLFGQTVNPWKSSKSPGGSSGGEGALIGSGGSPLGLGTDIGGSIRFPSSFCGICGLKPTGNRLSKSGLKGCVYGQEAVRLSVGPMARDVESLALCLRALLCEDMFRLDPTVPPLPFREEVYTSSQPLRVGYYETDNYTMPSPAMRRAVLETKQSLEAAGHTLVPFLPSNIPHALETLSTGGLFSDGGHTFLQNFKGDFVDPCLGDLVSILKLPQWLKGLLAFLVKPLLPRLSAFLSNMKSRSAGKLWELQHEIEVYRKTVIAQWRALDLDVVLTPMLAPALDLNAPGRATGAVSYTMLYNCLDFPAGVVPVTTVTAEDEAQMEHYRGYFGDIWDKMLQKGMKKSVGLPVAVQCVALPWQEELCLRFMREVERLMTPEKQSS
Assay: Human FAAH biochemical inhibition assay (AMC arachidonoyl amide fluorescence)
Details: class given in each Example, read-out: Activity (Ki, inhibition of human FAAH)
The entries below come with measured Ki values attached.

Here are 4 molecules together with their reported answers.
molecule	value observed
CCCc1cnc(-c2cc(OCCc3ccccc3)ccc2B(O)O)s1	10 to 100 nM
CC(C)c1ccc(CN2CCC(Cc3nc4ccc(B(O)O)cc4o3)CC2)cc1	10 to 100 nM
O=C1CC(c2nc3ccc(B(O)O)cc3o2)CN1c1ccccc1 (stereo not drawn)	10 to 100 nM
OB(O)c1ccc2nc(Cc3ccccc3)oc2c1	≤ 10 nM

The molecule identified as `OB(O)c1ccc(C2CCN(Cc3ccccc3)CC2)cc1` registered its Ki at 100 to 1000 nM

The molecule identified as `CCCCCc1nnc(-c2ccc(B(O)O)c(F)c2)o1` registered its Ki at ≤ 10 nM

Cited source: patent US8957049B2
